- SYSTEM_NAME: K-Ras^G12C : hSOS1 interaction (Homo sapiens)
- ASSAY_DETAILS: Biochemical assay 1: K-Ras^G12C interaction assay with hSOS1 (HTRF)
- Format: binding
- REPORTED_CONDITIONS: read-out: Assay 1 (KRAS-SOS Interaction) activity expressed as IC50
PROPERTY_LABEL: pIC50
pIC50 is a log-scale quantity: -log10 of the concentration expressed in molar.

Lookup: Given COc1cc2nc(C)nc(N[C@H](C)c3cccc(-c4cn[nH]c4)c3)c2cc1O , state its recorded pIC50.
Found: 4.84

Lookup: # pIC50 lookup, item COc1cc2nc(C)nc(N[C@H](C)c3cccc(-c4ccc(N5CCOCC5)cc4)c3)c2cc1OC
Found: 5.81

Lookup: Bench note: what pIC50 did COCCOc1cc2c(N[C@H](C)c3cccc(-c4cn[nH]c4)c3)nc(C)nc2cc1OC show?
Found: 6.16

Lookup: pIC50 for COc1cc2nc(C)nc(N[C@H](C)c3cccc(-c4cccc(S(C)(=O)=O)c4)c3)c2cc1OC ?
Found: 6.16

----------
- SYSTEM_NAME: K-Ras^G12C : hSOS1 interaction (Homo sapiens, UniProt Q07889)
- ASSAY_DETAILS: Biochemical assay 1: K-Ras^G12C interaction assay with hSOS1 (HTRF)
- Type: binding
- REPORTED_CONDITIONS: E-notation values; unit inferred; read-out: Assay 1 (KRAS-SOS interaction) IC50
PROPERTY_LABEL: IC50 (µM)
Numbers only here, please. The scale is µM.

The following compounds have reported results that may help.
{"COMPOUND": "Cc1nc(N[C@H](C)c2cccc(Cl)c2)c2cc(CO)ccc2n1", "SYSTEM_NAME": "K-Ras^G12C : hSOS1 interaction (Homo sapiens, UniProt Q07889)", "IC50 [µM]": 1.52}
{"COMPOUND": "COC(=O)c1ccc2nc(C)nc(N[C@H](C)c3cccc(Cl)c3)c2c1", "SYSTEM_NAME": "K-Ras^G12C : hSOS1 interaction (Homo sapiens, UniProt Q07889)", "IC50 [µM]": 1.89}
{"COMPOUND": "COC(=O)C(C)(C)c1ccccc1-c1ccc(C(C)Nc2nc(C)nc3cc(OC)c(OC)cc23)s1 (stereo not shown)", "SYSTEM_NAME": "K-Ras^G12C : hSOS1 interaction (Homo sapiens, UniProt Q07889)", "IC50 [µM]": 2.39}

Here's the next entry for you.
Lookup: Any idea what IC50 was measured for Cc1nc(NC(C)c2ccc(Br)s2)c2cc(N3CCN(Cc4ccccc4)C(=O)C3)ccc2n1 (stereo not shown) ?
Found: 16.1

----------
- SYSTEM_NAME: human SOS1 (nucleotide exchange of K-Ras^G12C) (Homo sapiens)
- ASSAY_DETAILS: Biochemical assay 2: K-Ras^G12C activation assay by hSOS1 at high GTP concentration (HTRF)
- REPORTED_CONDITIONS: read-out: Assay 2 (KRAS-Activation by SOS high GTP) activity expressed as % inhibition at 20 μM; high GTP; at 20 μM
PROPERTY_LABEL: inhibition at 20 µM (%)
Return type: number; implicit unit %.

Some entries whose results are on file:
{"COMPOUND": "COc1cc2nc(C)nc(N[C@@H](C)c3ccc(-c4ccccc4Oc4ccccc4)s3)c2cc1OC (stereo in doubt)", "inhibition at 20 µM (%)": 4}
{"COMPOUND": "COc1cc2nc(C)nc(N[C@H](C)c3ccc(C4=CCN(C)CC4)cc3)c2cc1OC", "inhibition at 20 µM (%)": 20}
{"COMPOUND": "COc1cc2nc(C)nc(N[C@@H](C)c3ccc(-c4cccc(N5CCOCC5)c4)s3)c2cc1OC (stereo in doubt)", "inhibition at 20 µM (%)": 47}
{"COMPOUND": "COc1cc2nc(C)nc(N[C@@H](C)c3ccc(/C=C/Cc4ccccc4)s3)c2cc1OC (racemic)", "inhibition at 20 µM (%)": 18}
{"COMPOUND": "COc1cc2nc(C)nc(N[C@@H](C)c3ccc(-c4cccc(OCc5ccccc5)c4)s3)c2cc1OC (stereo in doubt)", "inhibition at 20 µM (%)": 5}
{"COMPOUND": "COc1cc2nc(C)nc(N[C@@H](C)c3ccc(-c4cccc(/C=C/C#N)c4)s3)c2cc1OC (racemic)", "inhibition at 20 µM (%)": 33}

Lookup: Recall the recorded inhibition at 20 µM for COc1cc2nc(C)nc(N[C@@H](C)c3ccc(-c4ccc5c(c4)OCCO5)s3)c2cc1OC (stereo in doubt) with human SOS1 (nucleotide exchange of K-Ras^G12C) (Homo sapiens) and state it.
Found: 43

----------
- SYSTEM_NAME: K-Ras^G12C : hSOS1 interaction (Homo sapiens, UniProt Q07889)
- ASSAY_DETAILS: Biochemical assay 1: K-Ras^G12C interaction assay with hSOS1 (HTRF)
- Format: binding
- REPORTED_CONDITIONS: read-out: Assay 1 (KRAS-SOS Interaction) activity expressed as IC50
PROPERTY_LABEL: pIC50
pIC50 field: float, defined as -log10 of concentration (mol/L).

Worked examples, 2 molecules total:
{"MOLECULE": "COc1cc2nc(C)nc(N[C@@H](C)c3ccc(-c4ccc(CO)s4)s3)c2cc1OC (racemic)", "PROPERTY_LABEL": "pIC50", "OBSERVED_RESULT": 5.37}
{"MOLECULE": "COc1cc2nc(C)nc(N[C@@H](C)c3ccc(-c4ccoc4)s3)c2cc1OC (racemic)", "PROPERTY_LABEL": "pIC50", "OBSERVED_RESULT": 5.63}

Lookup: Recorded pIC50 for COc1cc2nc(C)nc(N[C@H](C)c3cccc(-c4cc(Cl)cc(Cl)c4)c3)c2cc1OC , please?
Found: 4.74

Lookup: So what's the measured pIC50 for this one? CCCCOc1cccc(F)c1-c1cccc([C@@H](C)Nc2nc(C)nc3cc(OC)c(OC)cc23)c1
Found: 5.00

Lookup: Query: pIC50; subject: COc1cc2nc(C)nc(NC(C)c3cc(-c4ccc(F)cc4CN)cs3)c2cc1OC (centres unmarked)
Found: 6.79

Lookup: Entry COc1cc2nc(C)nc(NC(C)c3ccnc4sccc34)c2cc1OC (centres unmarked) has what pIC50?
Found: 6.04

Lookup: Return reported pIC50; argument: COc1cc2nc(C)nc(NC(C)c3ccc(-c4ccc(F)cc4CNC(=O)CNCC(F)(F)F)s3)c2cc1OC (centres unmarked)
Found: 6.01

Lookup: Could you share which pIC50 value was measured for COc1cc2nc(C)nc(NC(C)c3ccc(-c4ccc(F)cc4CNC(=O)c4ncc[nH]4)s3)c2cc1OC (centres unmarked) ?
Found: 5.56

----------
- SYSTEM_NAME: K-Ras^G12C : hSOS1 interaction (Homo sapiens)
- ASSAY_DETAILS: Biochemical assay 1: K-Ras^G12C interaction assay with hSOS1 (HTRF)
- Format: binding
- REPORTED_CONDITIONS: read-out: Assay 1 (KRAS-SOS Interaction) activity expressed as IC50
Consider the cut-off 2 µM. If the recorded IC50 is strictly smaller, the label is T; if not, the label is F.

Observe how each entry below is paired with its result.
{"MOLECULE": "COc1cc2nc(C)nc(N[C@H](C)c3cccc(-c4ccc(-c5nnc(C)o5)cc4)c3)c2cc1OC", "SYSTEM_NAME": "K-Ras^G12C : hSOS1 interaction (Homo sapiens)", "CLASS_ASSIGNMENT": "T"}
{"MOLECULE": "COc1cc2nc(C)nc(N[C@@H](C)c3ccc(-c4ccc(C(C)=O)s4)s3)c2cc1OC (racemic)", "SYSTEM_NAME": "K-Ras^G12C : hSOS1 interaction (Homo sapiens)", "CLASS_ASSIGNMENT": "F"}
{"MOLECULE": "COc1cc2nc(C)nc(NC(C)c3ccc(-c4cscc4C#N)s3)c2cc1OC (stereo not shown)", "SYSTEM_NAME": "K-Ras^G12C : hSOS1 interaction (Homo sapiens)", "CLASS_ASSIGNMENT": "F"}
{"MOLECULE": "COc1cc2nc(C)nc(NC(C)c3ccc(-c4ccccc4CN4CCC(O)C4)s3)c2cc1OC (stereo not shown)", "SYSTEM_NAME": "K-Ras^G12C : hSOS1 interaction (Homo sapiens)", "CLASS_ASSIGNMENT": "T"}
{"MOLECULE": "COc1cc2nc(C)nc(N[C@H](C)c3cccc(-c4ccccc4S(=O)(=O)N(C)C)c3)c2cc1OC", "SYSTEM_NAME": "K-Ras^G12C : hSOS1 interaction (Homo sapiens)", "CLASS_ASSIGNMENT": "T"}
{"MOLECULE": "COc1cc2nc(C)nc(N[C@H](C)c3cccc(-c4cccc(C(F)(F)F)c4)c3)c2cc1OC", "SYSTEM_NAME": "K-Ras^G12C : hSOS1 interaction (Homo sapiens)", "CLASS_ASSIGNMENT": "F"}
{"MOLECULE": "COc1cc2nc(C)nc(NC(C)c3csc(-c4ccccc4CN)c3)c2cc1OC (stereo not shown)", "SYSTEM_NAME": "K-Ras^G12C : hSOS1 interaction (Homo sapiens)", "CLASS_ASSIGNMENT": "T"}
{"MOLECULE": "COc1cc2nc(C)nc(N[C@@H](C)c3ccc(-c4ccc(C(=O)N(C)C)cc4)s3)c2cc1OC (racemic)", "SYSTEM_NAME": "K-Ras^G12C : hSOS1 interaction (Homo sapiens)", "CLASS_ASSIGNMENT": "F"}
{"MOLECULE": "COc1cc2nc(C)nc(N[C@@H](C)c3ccc(-c4cccc(NS(C)(=O)=O)c4)s3)c2cc1OC (racemic)", "SYSTEM_NAME": "K-Ras^G12C : hSOS1 interaction (Homo sapiens)", "CLASS_ASSIGNMENT": "F"}
{"MOLECULE": "CCCOc1ccccc1-c1cccc([C@@H](C)Nc2nc(C)nc3cc(OC)c(OC)cc23)c1", "SYSTEM_NAME": "K-Ras^G12C : hSOS1 interaction (Homo sapiens)", "CLASS_ASSIGNMENT": "F"}

Continue with the molecule presented below.
Lookup: Could you please tell me whether IC50 recorded for COc1cc2nc(C)nc(N[C@@H](C)c3ccc(-c4ccc5[nH]ccc5c4)s3)c2cc1OC (racemic) is less than 2 µM?
Found: F
